protocolText: Oral bioavailability in Sprague-Dawley rat at 30 mg/kg measured upto 48 hrs by LC-MS/MS analysis
Format: ADME, organism-based
measurementSetup: in vivo
quantityMeasured: bioavailability (%)
Record the value in %, omitting the unit from your answer.

Per the records, this compound ( "CCc1cnc(N2CCC(COc3ccc(C4=CC[C@H](C(=O)N5CCC[C@@H]5CO)CC4)cc3)CC2)nc1" ) has bioavailability equal to 28.3

---

system: Glucose-dependent insulinotropic receptor (Homo sapiens)
Sequence (Q8TDV5 whole entry): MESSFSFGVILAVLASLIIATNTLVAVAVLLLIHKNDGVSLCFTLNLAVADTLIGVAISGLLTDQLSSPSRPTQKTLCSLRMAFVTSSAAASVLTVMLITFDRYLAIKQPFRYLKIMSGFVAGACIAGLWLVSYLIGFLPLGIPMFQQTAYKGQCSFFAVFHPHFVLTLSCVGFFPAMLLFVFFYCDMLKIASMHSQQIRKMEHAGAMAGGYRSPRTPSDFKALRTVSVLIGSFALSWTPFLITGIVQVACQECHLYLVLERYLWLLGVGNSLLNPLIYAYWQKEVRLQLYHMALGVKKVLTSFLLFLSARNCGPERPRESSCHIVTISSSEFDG
protocolText: Agonist activity at human GPR119
Assay type: functional
quantityMeasured: EC50 (nM)
Reply with just the number (in nM).

Reference set (2 entries):
>>> print(df.to_string())
                                   molecule                                    system  quantitymeasured  recordednumber
0  CCOC(=O)C1CCC(c2ccc(OCC3CCN(C(=O)OC(C)(C)C)CC3)cc2)CC1 (stereo not drawn)  Glucose-dependent insulinotropic receptor (Homo sapiens)              EC50             370
1  CCOC(=O)c1ccc(-c2ccc(OCC3CCN(C(=O)OC(C)(C)C)CC3)cc2)cc1  Glucose-dependent insulinotropic receptor (Homo sapiens)              EC50             120

Entry "CCc1cnc(N2CCC(CCCOc3cc(F)c(-c4noc(C(C)C)n4)c(F)c3)CC2)nc1" — recorded EC50 = 14
